biological target: Recombinant Human Anaplastic Lymphoma Kinase (Homo sapiens, UniProt Q9UM73); construct: purchased Invitrogen, Carlsbad, Calif; test: ALK HTRF kinase assay; format: biochemical; details: Table B1; cells without percent sign
Sequence (Q9UM73 19-1620): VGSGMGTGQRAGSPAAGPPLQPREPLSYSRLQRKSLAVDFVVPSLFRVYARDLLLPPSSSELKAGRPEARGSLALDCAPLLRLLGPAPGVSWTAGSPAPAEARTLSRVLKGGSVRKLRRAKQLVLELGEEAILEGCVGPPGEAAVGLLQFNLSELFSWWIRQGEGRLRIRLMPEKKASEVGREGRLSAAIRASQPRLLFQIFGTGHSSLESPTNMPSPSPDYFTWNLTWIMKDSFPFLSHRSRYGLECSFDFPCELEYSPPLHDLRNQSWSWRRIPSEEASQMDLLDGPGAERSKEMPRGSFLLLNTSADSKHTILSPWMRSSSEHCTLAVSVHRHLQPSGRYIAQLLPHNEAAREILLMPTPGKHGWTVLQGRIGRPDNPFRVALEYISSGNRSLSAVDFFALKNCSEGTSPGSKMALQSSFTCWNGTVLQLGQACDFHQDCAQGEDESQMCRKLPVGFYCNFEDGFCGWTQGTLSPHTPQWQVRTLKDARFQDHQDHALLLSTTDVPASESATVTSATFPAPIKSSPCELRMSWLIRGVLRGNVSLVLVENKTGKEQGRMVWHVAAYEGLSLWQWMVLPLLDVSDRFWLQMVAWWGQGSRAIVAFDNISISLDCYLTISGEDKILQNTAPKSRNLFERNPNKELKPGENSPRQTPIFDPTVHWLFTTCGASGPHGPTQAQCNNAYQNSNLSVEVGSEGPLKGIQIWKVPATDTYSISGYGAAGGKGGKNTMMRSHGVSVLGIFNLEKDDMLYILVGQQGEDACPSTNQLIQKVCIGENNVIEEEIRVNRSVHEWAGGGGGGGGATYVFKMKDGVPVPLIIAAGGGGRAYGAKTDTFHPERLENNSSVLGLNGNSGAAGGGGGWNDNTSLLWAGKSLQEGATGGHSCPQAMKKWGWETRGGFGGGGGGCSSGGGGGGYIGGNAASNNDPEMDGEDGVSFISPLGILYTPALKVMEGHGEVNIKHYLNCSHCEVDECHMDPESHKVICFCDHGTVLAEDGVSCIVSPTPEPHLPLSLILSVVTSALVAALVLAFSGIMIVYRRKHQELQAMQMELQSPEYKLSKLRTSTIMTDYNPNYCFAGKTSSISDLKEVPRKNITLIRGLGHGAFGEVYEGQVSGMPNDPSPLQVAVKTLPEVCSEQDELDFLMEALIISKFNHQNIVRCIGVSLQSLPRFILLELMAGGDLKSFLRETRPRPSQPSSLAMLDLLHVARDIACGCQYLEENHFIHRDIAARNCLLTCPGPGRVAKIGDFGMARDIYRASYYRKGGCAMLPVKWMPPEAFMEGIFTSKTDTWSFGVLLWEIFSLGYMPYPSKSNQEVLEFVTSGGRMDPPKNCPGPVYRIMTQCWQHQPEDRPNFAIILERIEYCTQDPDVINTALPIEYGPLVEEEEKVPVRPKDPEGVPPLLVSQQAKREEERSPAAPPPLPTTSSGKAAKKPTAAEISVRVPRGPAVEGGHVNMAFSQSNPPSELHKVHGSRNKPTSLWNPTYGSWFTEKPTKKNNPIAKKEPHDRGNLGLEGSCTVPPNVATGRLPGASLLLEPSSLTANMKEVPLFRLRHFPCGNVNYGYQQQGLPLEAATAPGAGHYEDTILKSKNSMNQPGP
Counter-ions that a name gives are not always drawn.
Some compounds, each annotated with its measured IC50.
Kindly answer with a numeric value in nM, unit omitted.

N#Cc1ccc(C(=O)Nc2ccc3cc2CCc2cccc(c2)Nc2ncc(Cl)c(n2)N3)cc1 [Example B64, trifluoroacetate] | 150
O=C(Nc1ccc2cc1CCc1cccc(c1)Nc1ncc(Cl)c(n1)N2)c1ccccc1Cl [Example B41, hydrochloride] | 140
Nc1ccc2cc1CCc1cccc(c1)Nc1ncc(Cl)c(n1)N2 [Example B19, dihydrochloride] | 610

Now look at this entry.
Entry Cc1ccccc1C(=O)Nc1ccc2cc1CCc1cccc(c1)Nc1ncc(Cl)c(n1)N2 [Example B35, trifluoroacetate] ; IC50 = 76

###

biological target: Recombinant Human Anaplastic Lymphoma Kinase (Homo sapiens, UniProt Q9UM73); construct: purchased Invitrogen, Carlsbad, Calif; assay: ALK HTRF kinase assay; assay type: biochemical; conditions: compound at 500 nM or 1 mM; 90 μM ATP
Catalogue of compounds with associated ALK % of inhibition at a concentration of 500 nM or 1 mM
Give just the numeric value; % need not be written.

N#Cc1ccc(N2CCC(CC(=O)Nc3ccc4cc3CCc3cncc(c3)Nc3ncc(Cl)c(n3)N4)CC2)nc1 [Example A179, tris(trifluoroacetate)] | 43

From here, focus on the item given below.
Value of measured ALK % of inhibition at a concentration of 500 nM or 1 mM for the entry N#Cc1c(Cl)cccc1N1CCC(CC(=O)Nc2ccc3cc2CCc2cncc(c2)Nc2ncc(Cl)c(n2)N3)CC1 [Example A222, tris(trifluoroacetate)] : 5.6

###

target: Recombinant Human Anaplastic Lymphoma Kinase (Homo sapiens); construct: purchased Invitrogen, Carlsbad, Calif; assay: ALK HTRF kinase assay; format: biochemical; conditions: compound at 500 nM or 1 mM; 90 μM ATP
Where a name gives a salt, the structure may show the parent alone.
Value kind: ALK % of inhibition at a concentration of 500 nM or 1 mM (%)
Write down the numeric answer in % and omit the unit.

Answered cases to consult:
CCS(=O)(=O)N1CCC(CC(=O)Nc2ccc3cc2CCc2cccc(c2)Nc2ncc(Cl)c(n2)N3)CC1 [Example A83, trifluoroacetate] | 41
Cc1cc(C(=O)N2CCC(CCC(=O)Nc3ccc4cc3CCc3cncc(c3)Nc3ncc(Cl)c(n3)N4)CC2)no1 [Example A125, bis(trifluoroacetate)] | 25
Cc1oncc1C(=O)N1CCC(CC(=O)Nc2ccc3cc2CCc2cncc(c2)Nc2ncc(Cl)c(n2)N3)CC1 [Example A131, bis(trifluoroacetate)] | 20

Notebook: O=C(CC1CCN(C(=O)Nc2ccc(F)cc2)CC1)Nc1ccc2cc1CCc1cncc(c1)Nc1ncc(Cl)c(n1)N2 [Example A148, bis(trifluoroacetate)] , ALK % of inhibition at a concentration of 500 nM or 1 mM read as 42

ALK % of inhibition at a concentration of 500 nM or 1 mM recorded for this compound, O=C(CC1CCN(c2nccs2)CC1)Nc1ccc2cc1CCc1cncc(c1)Nc1ncc(Cl)c(n1)N2 [Example A159, tris(trifluoroacetate)] , is 24

Form: compound = O=C(Nc1ccc2cc1CCc1cccc(c1)Nc1ncc(Cl)c(n1)N2)C1CCN(C(=O)Nc2ccccc2)CC1 [Example A36, trifluoroacetate] ; ALK % of inhibition at a concentration of 500 nM or 1 mM = 48
